From: paper PMC5221453

target: human S1P4 receptor (Homo sapiens, UniProt O95977); assay: Ca2+ mobilization assay, human S1P4 receptor-expressing cells; assay type: cell-based; settings: read-out: EC50 values (95% CI), S1P4; agonist activity, intracellular Ca2+ mobilization, geometric mean
Readout Type: EC50 (nM)
Just the number please, in nM, no unit attached.

Find the recorded EC50 belonging to CCCCCCCCc1ccc(CC[C@](N)(CO)COP(=O)(O)O)cc1 [Fingolimod‐P, Fingolimod phosphate] and report it.
66.3

###

target: human S1P1 receptor (Homo sapiens); assay: Ca2+ mobilization assay, human S1P1 receptor-expressing cells
Sequence (P21453 whole entry): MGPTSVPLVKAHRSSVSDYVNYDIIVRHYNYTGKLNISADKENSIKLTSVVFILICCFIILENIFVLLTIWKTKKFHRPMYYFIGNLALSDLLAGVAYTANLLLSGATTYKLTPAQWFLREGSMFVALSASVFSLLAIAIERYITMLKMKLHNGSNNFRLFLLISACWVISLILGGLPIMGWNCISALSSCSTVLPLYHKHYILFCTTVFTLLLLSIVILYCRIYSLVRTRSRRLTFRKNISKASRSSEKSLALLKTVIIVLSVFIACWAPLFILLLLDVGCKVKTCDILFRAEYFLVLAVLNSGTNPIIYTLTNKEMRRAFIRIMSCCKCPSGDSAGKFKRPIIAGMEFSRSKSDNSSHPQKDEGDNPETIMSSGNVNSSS
Readout Type: EC50 (nM)
Provide only the numeric value, understood in nM.

Item CCCCCCCCCCCCC/C=C/[C@@H](O)[C@@H](N)COP(=O)(O)O [S1P, sphingosine 1‐phosphate] has what recorded EC50?
0.18

###

target: human S1P3 receptor (Homo sapiens, UniProt Q99500); assay: Ca2+ mobilization assay, human S1P3 receptor-expressing cells
Sequence (Q99500 whole entry): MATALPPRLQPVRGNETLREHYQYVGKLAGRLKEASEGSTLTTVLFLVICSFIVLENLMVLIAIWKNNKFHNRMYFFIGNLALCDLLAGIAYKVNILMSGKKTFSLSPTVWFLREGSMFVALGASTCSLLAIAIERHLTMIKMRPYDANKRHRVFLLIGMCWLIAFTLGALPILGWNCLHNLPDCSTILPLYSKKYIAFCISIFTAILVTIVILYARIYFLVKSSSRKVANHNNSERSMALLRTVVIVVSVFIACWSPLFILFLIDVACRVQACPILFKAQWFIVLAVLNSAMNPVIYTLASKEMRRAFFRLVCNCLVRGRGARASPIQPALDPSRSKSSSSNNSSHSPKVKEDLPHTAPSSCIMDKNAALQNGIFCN
Readout Type: EC50 (nM)
Dear colleague, please return just the value in nM, with no unit written.

What measured EC50 goes with CCCCCCCCCCCCC/C=C/[C@@H](O)[C@@H](N)COP(=O)(O)O [S1P, sphingosine 1‐phosphate] ?
0.16

###

Biological target: UniProt:O95977
Sequence (O95977 1-384): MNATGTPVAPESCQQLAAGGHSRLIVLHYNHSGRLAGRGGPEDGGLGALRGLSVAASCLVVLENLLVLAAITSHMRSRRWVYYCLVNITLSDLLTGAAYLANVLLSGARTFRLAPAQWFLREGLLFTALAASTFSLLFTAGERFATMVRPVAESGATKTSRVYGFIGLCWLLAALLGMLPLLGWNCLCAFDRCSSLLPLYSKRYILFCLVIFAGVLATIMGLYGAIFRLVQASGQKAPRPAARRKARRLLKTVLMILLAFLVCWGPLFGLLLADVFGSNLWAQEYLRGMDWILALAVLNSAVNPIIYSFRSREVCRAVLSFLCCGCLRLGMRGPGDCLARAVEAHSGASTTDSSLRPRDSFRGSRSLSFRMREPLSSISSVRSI
Assay: Ca2+ mobilization assay, human S1P4 receptor-expressing cells
Type: cell-based
Readout Type: EC50 (nM)
Numeric answer only, unit nM assumed.

Query (compound): CCCCCCCCCCCCC/C=C/[C@@H](O)[C@@H](N)COP(=O)(O)O [S1P, sphingosine 1‐phosphate] ; field requested: EC50
82.7
